Recorded values, source ChEMBL document CHEMBL1201862.

Target: Probable nicotinate-nucleotide adenylyltransferase (Staphylococcus aureus (strain N315), UniProt P65502);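 further: confirmatory retest of primary uHTS inhibitor hits against NadD over a range of doses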
Sequence (P65502 whole entry): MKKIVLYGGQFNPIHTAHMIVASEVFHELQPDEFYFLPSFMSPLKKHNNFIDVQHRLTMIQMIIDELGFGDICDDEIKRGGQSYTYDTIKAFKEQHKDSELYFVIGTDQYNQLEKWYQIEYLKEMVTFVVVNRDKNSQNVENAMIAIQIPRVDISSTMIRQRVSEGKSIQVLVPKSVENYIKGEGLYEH
Format: functional, Staphylococcus aureus subsp. aureus N315
Active and inactive are the calls of the source.
So I've got a bunch of molecules here, and I need their IC50 values.

Check out these entries, answers already filled in.
# molecule `O=C(Nc1cccc(S(=O)(=O)NC2=NCCC2)c1)c1cc(-c2ccco2)nc2ccccc12` ; its IC50 = 9.01 µM (active)

# molecule `COc1ccc(NC(=O)c2cc(-c3ccco3)nc3ccccc23)cc1S(=O)(=O)N1CCOCC1` ; its IC50 = 8.76 µM (active)

# molecule `C=CCn1/c(=N/C(=O)c2cc(-c3cccs3)nc3ccccc23)sc2cc(S(N)(=O)=O)ccc21` ; its IC50 = 11.5 µM (active)

# molecule [O-][S+](c1ccccc1O)[S+]([O-])c1ccccc1O (stereo not given) ; its IC50 = 3.33 µM (active)

Could you now consider this next molecule?
# molecule `Cc1cccc2sc(NNC(=O)c3cc(-c4cccs4)nc4ccccc34)nc12` ; its IC50 = 13.3 µM (active)
